Below, each entry is listed alongside its reported residual activity.
Biological target: DYRK3 (human)
Assay: radiometric filter-binding kinase assay
Settings: compound 10.0 µM
Quantity: residual activity

>  <Molecule>
CCCCCc1ccc(/C=C/[C@H](O)[C@@H](CO)NC)cc1

>  <Measured Value>
93%

$$$$
>  <Molecule>
CNc1nc(-c2ccc3c(N)n[nH]c3c2)cc(N2C[C@@H](C(=O)NC3CCCCC3)CC[C@H]2C)n1

>  <Measured Value>
88%

$$$$
>  <Molecule>
C=CC(=O)N1CCC[C@@H](n2nc(-c3ccc(Oc4ccccc4)cc3)c3c(N)ncnc32)C1

>  <Measured Value>
68%

$$$$
>  <Molecule>
O=C(NOCC(O)CO)c1ccc(F)c(F)c1Nc1ccc(I)cc1Cl (stereo not given)

>  <Measured Value>
83%

$$$$
>  <Molecule>
CCc1cncnc1N1CCN(Cc2nc3cc(C(F)(F)F)ccc3[nH]2)CC1

>  <Measured Value>
83%

$$$$

====

Each entry below lists one item and its recorded residual activity value.
Target: CSNK2A1 (human)
Assay: radiometric filter-binding kinase assay
Conditions: compound 10.0 µM

>  <Molecule>
FC(F)(F)c1ccc(-c2ccc(Oc3cncc4sc(-c5nn[nH]n5)cc34)cc2)cc1

>  <residual activity, %>
4

$$$$
>  <Molecule>
CC1=C(CO)C(=O)O[C@@H]([C@@H](C)[C@H]2CC[C@H]3[C@@H]4C[C@H]5O[C@]56[C@@H](O)C=CC(=O)[C@]6(C)C4CC[C@]23C)C1 (stereo not given in full)

>  <residual activity, %>
94

$$$$
>  <Molecule>
NCC(=O)Nc1ccc(-n2nc(C(F)(F)F)cc2-c2ccc3c(ccc4ccccc43)c2)cc1

>  <residual activity, %>
79

$$$$
>  <Molecule>
N#Cc1c(O)c2c(-c3ccc(-c4ccccc4O)cc3)csc2[nH]c1=O

>  <residual activity, %>
110

$$$$
>  <Molecule>
CC(C)C[C@H](NC(=O)CNC(=O)c1cc(Cl)ccc1Cl)B1OC(=O)CC(CC(=O)O)(C(=O)O)O1 (stereo not given in full)

>  <residual activity, %>
82

$$$$
>  <Molecule>
NC(=O)Nc1ccc2c(c1)/C(=C/c1cc(-c3cccnc3)c[nH]1)C(=O)N2

>  <residual activity, %>
21

$$$$
>  <Molecule>
COc1cc2ncn(-c3cc(OCc4ccccc4S(C)(=O)=O)c(C#N)s3)c2cc1OC

>  <residual activity, %>
107

$$$$
>  <Molecule>
C[C@H]1CCCC(=O)CCC/C=C/c2cc(O)cc(O)c2C(=O)O1

>  <residual activity, %>
96

$$$$
>  <Molecule>
O=C1Nc2nc(-c3c(O)cccc3OCC3CC3)cc(C3CCCNC3)c2CO1 (stereo not given)

>  <residual activity, %>
70

$$$$
>  <Molecule>
Cc1ccc2c(c1)C(=O)[C@@]1(O)CCN(c3ccccc3)C1=N2

>  <residual activity, %>
110

$$$$
>  <Molecule>
Cc1ccc(Sc2cnc(Nc3cccc(Br)n3)s2)cc1C(=O)N1CCN(C(=O)CN)CC1

>  <residual activity, %>
85

$$$$
>  <Molecule>
Cc1cccc(Nc2nn(C)c3ncnc(N)c23)c1

>  <residual activity, %>
93

$$$$
>  <Molecule>
CCCC(CCC)C(=O)O

>  <residual activity, %>
86

$$$$
>  <Molecule>
Cc1ccc(=O)n(-c2ccccc2)c1

>  <residual activity, %>
103

$$$$
>  <Molecule>
CCCCCc1ccc(/C=C/[C@H](O)[C@@H](CO)NC)cc1

>  <residual activity, %>
83

$$$$
>  <Molecule>
CNc1nc(-c2ccc3c(N)n[nH]c3c2)cc(N2C[C@@H](C(=O)NC3CCCCC3)CC[C@H]2C)n1

>  <residual activity, %>
111

$$$$
>  <Molecule>
COC(=O)/C=C/C(=O)OC

>  <residual activity, %>
98

$$$$
>  <Molecule>
CC(C)(C#N)c1ccc(N2C(=O)OCc3cnc4ccc(-c5cnc6ccccc6c5)cc4c32)cc1

>  <residual activity, %>
97

$$$$
>  <Molecule>
NC(=O)c1ccc(-c2ccc(Oc3cncc4sc(-c5nn[nH]n5)cc34)cc2)cc1

>  <residual activity, %>
6

$$$$
>  <Molecule>
COc1cc(C(=O)N2CCOCC2)c(F)cc1Nc1ncc(C(F)(F)F)c(NC2CC2)n1

>  <residual activity, %>
74

$$$$

====

Recorded residual activity by entry
Target: MAPK14 (human) (UniProt Q16539)
Sequence (Q16539 whole entry, looked up): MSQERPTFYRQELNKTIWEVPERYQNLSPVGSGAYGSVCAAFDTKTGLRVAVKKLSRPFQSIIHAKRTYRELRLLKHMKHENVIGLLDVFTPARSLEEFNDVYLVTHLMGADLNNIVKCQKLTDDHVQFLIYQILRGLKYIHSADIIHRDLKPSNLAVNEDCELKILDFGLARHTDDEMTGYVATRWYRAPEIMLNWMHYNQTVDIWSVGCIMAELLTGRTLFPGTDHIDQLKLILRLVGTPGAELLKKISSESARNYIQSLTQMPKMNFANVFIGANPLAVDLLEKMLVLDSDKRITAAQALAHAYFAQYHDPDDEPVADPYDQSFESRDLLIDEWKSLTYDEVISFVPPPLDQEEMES
Test: radiometric filter-binding kinase assay
Conditions: compound 0.1 µM

>  <Compound>
COc1ccc(N(C(=O)Nc2c(C)cccc2C)c2cc(Nc3ccc(N4CCN(C)CC4)cc3)ncn2)c(OC)c1

>  <residual activity [%]>
79

$$$$
>  <Compound>
NC(=O)Nc1ccc2c(c1)/C(=C/c1cc(-c3cccnc3)c[nH]1)C(=O)N2

>  <residual activity [%]>
81

$$$$
>  <Compound>
O=C(O)c1ccc(-c2c[nH]c3ncc(-c4ccccc4)cc23)cc1C1CCCC1

>  <residual activity [%]>
94

$$$$
>  <Compound>
COc1cc(O)c2c(c1)/C=C/C[C@H](O)[C@H](O)C(=O)/C=C\C[C@H](C)OC2=O

>  <residual activity [%]>
103

$$$$
>  <Compound>
NC(=O)c1cc(-c2ccnc(NC3CCCCC3)c2)nc(N2CCNCC2)c1

>  <residual activity [%]>
104

$$$$
>  <Compound>
COc1ccc(-n2ncc3cnc(Nc4cc(OC)c(OC)c(OCCCN5CCN(C)CC5)c4)nc32)cc1

>  <residual activity [%]>
98

$$$$
>  <Compound>
Cn1c(=O)c2c(ncn2C)n(C)c1=O

>  <residual activity [%]>
88

$$$$
>  <Compound>
Cc1cc(NC(=O)c2cccc(NC(=O)/C=C/CN(C)C)c2)ccc1Nc1nccc(-c2cccnc2)n1

>  <residual activity [%]>
105

$$$$
>  <Compound>
O=C(N[C@@H](COc1ccc2[nH]c(=O)[nH]c2c1)c1ccccc1)c1cccn(Cc2ccc(F)c(F)c2)c1=O

>  <residual activity [%]>
114

$$$$
>  <Compound>
Cc1ccc(-c2ccc3c(ccc4sc5c(c43)NC[C@@H](C)NC5=O)n2)cn1

>  <residual activity [%]>
94

$$$$
>  <Compound>
CNc1nc(-c2ccc3c(N)n[nH]c3c2)cc(N2C[C@@H](C(=O)NC3CCCCC3)CC[C@H]2C)n1

>  <residual activity [%]>
109

$$$$
>  <Compound>
CCn1c(-c2nonc2N)nc2cncc(CNC3CCNCC3)c21

>  <residual activity [%]>
101

$$$$
>  <Compound>
CC1=C(CO)C(=O)O[C@@H]([C@@H](C)[C@H]2CC[C@H]3[C@@H]4C[C@H]5O[C@]56[C@@H](O)C=CC(=O)[C@]6(C)C4CC[C@]23C)C1 (stereo partly specified)

>  <residual activity [%]>
101

$$$$
>  <Compound>
CCc1cncnc1N1CCN(Cc2nc3cc(C(F)(F)F)ccc3[nH]2)CC1

>  <residual activity [%]>
86

$$$$
>  <Compound>
CN(C)C/C=C/C(=O)Nc1cccc(C(=O)Nc2ccc(Nc3nccc(-c4cccnc4)n3)cc2)c1

>  <residual activity [%]>
98

$$$$
>  <Compound>
O=C(Nc1ccccc1-c1cn2c(CN3CCNCC3)csc2n1)c1cnc2ccccc2n1

>  <residual activity [%]>
87

$$$$
>  <Compound>
C=CC(=O)N1CCC[C@@H](n2nc(-c3ccc(Oc4ccccc4)cc3)c3c(N)ncnc32)C1

>  <residual activity [%]>
99

$$$$
>  <Compound>
O=C(NCCCNc1nc(Nc2cccc(CN3CCOCC3)c2)ncc1C1CC1)C1CCC1

>  <residual activity [%]>
100

$$$$
>  <Compound>
C/C(=C1/C(=O)Nc2ccc(NC(N)=O)cc21)c1ccc[nH]1

>  <residual activity [%]>
84

$$$$
>  <Compound>
NC(=O)c1cc2c(-c3cccc(-c4ccccc4)c3)cnc(N)c2s1

>  <residual activity [%]>
110

$$$$
>  <Compound>
Cc1cccc(-c2nn(C(=S)Nc3ccccc3)cc2-c2ccnc3ccccc23)n1

>  <residual activity [%]>
56

$$$$

====

Target: EPHB3 (human) (UniProt P54753)
Sequence (P54753 whole entry, looked up): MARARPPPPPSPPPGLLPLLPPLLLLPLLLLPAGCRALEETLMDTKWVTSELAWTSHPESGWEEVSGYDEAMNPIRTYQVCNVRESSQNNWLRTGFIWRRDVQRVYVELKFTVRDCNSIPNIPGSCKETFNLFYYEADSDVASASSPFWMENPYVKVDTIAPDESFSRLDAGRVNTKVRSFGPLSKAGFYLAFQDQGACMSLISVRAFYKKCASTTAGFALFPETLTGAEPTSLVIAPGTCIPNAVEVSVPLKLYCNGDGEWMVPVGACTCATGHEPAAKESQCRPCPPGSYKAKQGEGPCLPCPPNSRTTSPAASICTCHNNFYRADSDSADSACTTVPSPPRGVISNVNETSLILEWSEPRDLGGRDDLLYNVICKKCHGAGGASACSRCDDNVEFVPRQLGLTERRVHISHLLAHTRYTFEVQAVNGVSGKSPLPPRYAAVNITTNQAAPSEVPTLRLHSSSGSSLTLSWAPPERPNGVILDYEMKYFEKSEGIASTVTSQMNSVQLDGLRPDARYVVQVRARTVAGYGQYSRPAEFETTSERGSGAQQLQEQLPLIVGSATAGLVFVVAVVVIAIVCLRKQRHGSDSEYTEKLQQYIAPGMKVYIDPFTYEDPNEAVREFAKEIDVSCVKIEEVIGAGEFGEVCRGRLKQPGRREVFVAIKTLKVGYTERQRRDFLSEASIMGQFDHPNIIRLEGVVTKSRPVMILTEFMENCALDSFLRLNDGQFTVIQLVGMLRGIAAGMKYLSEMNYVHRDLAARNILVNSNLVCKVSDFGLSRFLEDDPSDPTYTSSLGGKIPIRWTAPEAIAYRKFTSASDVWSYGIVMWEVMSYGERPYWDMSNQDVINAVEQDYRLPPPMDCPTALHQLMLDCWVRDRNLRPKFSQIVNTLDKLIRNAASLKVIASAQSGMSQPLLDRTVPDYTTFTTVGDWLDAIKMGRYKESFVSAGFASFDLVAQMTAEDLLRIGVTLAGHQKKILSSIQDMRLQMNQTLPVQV
Experiment: radiometric filter-binding kinase assay
Details: compound 10.0 µM

>  <Compound>
CCNc1nc(Nc2cc(F)c(C(=O)N3CCOCC3)cc2OC)ncc1C(F)(F)F

>  <Result Unit>
%

>  <residual activity>
83

$$$$
>  <Compound>
Cc1ccc(=O)n(-c2ccccc2)c1

>  <Result Unit>
%

>  <residual activity>
112

$$$$
>  <Compound>
C=CC(=O)N1CCC[C@@H](n2nc(-c3ccc(Oc4ccccc4)cc3)c3c(N)ncnc32)C1

>  <Result Unit>
%

>  <residual activity>
51

$$$$
>  <Compound>
CCn1c(-c2nonc2N)nc2cncc(CNC3CCNCC3)c21

>  <Result Unit>
%

>  <residual activity>
83

$$$$
>  <Compound>
FC(F)(F)c1ccc(-c2ccc(Oc3cncc4sc(-c5nn[nH]n5)cc34)cc2)cc1

>  <Result Unit>
%

>  <residual activity>
104

$$$$
>  <Compound>
O=C(Nc1ccccc1-c1cn2c(CN3CCNCC3)csc2n1)c1cnc2ccccc2n1

>  <Result Unit>
%

>  <residual activity>
90

$$$$
>  <Compound>
CC(C)(C#N)c1ccc(N2C(=O)OCc3cnc4ccc(-c5cnc6ccccc6c5)cc4c32)cc1

>  <Result Unit>
%

>  <residual activity>
103

$$$$
>  <Compound>
O=C(O)c1ccc(-c2c[nH]c3ncc(-c4ccccc4)cc23)cc1C1CCCC1

>  <Result Unit>
%

>  <residual activity>
101

$$$$
>  <Compound>
O=C1Nc2nc(-c3c(O)cccc3OCC3CC3)cc(C3CCCNC3)c2CO1 (stereo unspecified)

>  <Result Unit>
%

>  <residual activity>
93

$$$$
>  <Compound>
O=S(=O)(c1ccc(F)c2nonc12)N1CCN(c2ncc(C(F)(F)F)cc2Cl)CC1

>  <Result Unit>
%

>  <residual activity>
86

$$$$
>  <Compound>
CN1C(=O)[C@@H](Cc2c[nH]c3ccccc23)NC1=S

>  <Result Unit>
%

>  <residual activity>
104

$$$$
>  <Compound>
C[C@H]1CCCC(=O)CCC/C=C/c2cc(O)cc(O)c2C(=O)O1

>  <Result Unit>
%

>  <residual activity>
85

$$$$
>  <Compound>
CNc1nc(-c2ccc3c(N)n[nH]c3c2)cc(N2C[C@@H](C(=O)NC3CCCCC3)CC[C@H]2C)n1

>  <Result Unit>
%

>  <residual activity>
103

$$$$
>  <Compound>
CCCCCc1ccc(/C=C/[C@H](O)[C@@H](CO)NC)cc1

>  <Result Unit>
%

>  <residual activity>
86

$$$$
>  <Compound>
O=c1c(O)c(-c2ccc(O)c(O)c2)oc2cc(O)c(O)c(O)c12

>  <Result Unit>
%

>  <residual activity>
61

$$$$
>  <Compound>
CCc1cncnc1N1CCN(Cc2nc3cc(C(F)(F)F)ccc3[nH]2)CC1

>  <Result Unit>
%

>  <residual activity>
101

$$$$
>  <Compound>
NC(=O)c1cc2c(-c3cccc(-c4ccccc4)c3)cnc(N)c2s1

>  <Result Unit>
%

>  <residual activity>
92

$$$$
>  <Compound>
NC(=O)c1cc(-c2ccnc(NC3CCCCC3)c2)nc(N2CCNCC2)c1

>  <Result Unit>
%

>  <residual activity>
94

$$$$
>  <Compound>
Cc1ccc(-c2ccc3c(ccc4sc5c(c43)NC[C@@H](C)NC5=O)n2)cn1

>  <Result Unit>
%

>  <residual activity>
85

$$$$
>  <Compound>
NC(=O)c1ccc(-c2ccc(Oc3cncc4sc(-c5nn[nH]n5)cc34)cc2)cc1

>  <Result Unit>
%

>  <residual activity>
96

$$$$
>  <Compound>
O=C(O)c1cc(N=Nc2ccc(S(=O)(=O)Nc3ccccn3)cc2)ccc1O

>  <Result Unit>
%

>  <residual activity>
118

$$$$
